assay: physchem; details: octan-1-ol/water, pH 7.4, LogD7.4
Short version: logD at least 3 is Fulfilled, less is Not fulfilled.

>  <Compound>
COc1ccccc1OCC(O)COC(N)=O (stereo unspecified)

>  <Group>
Not fulfilled

$$$$
>  <Compound>
Cc1ccc(COC(=O)N2CC[C@H](CNc3ncccn3)[C@H](F)C2)cc1

>  <Group>
Fulfilled

$$$$
>  <Compound>
Nc1cc(-c2ccccc2)ncn1

>  <Group>
Not fulfilled

$$$$
>  <Compound>
CC1CC(CN)CC(CO)C1 (stereo unspecified)

>  <Group>
Not fulfilled

$$$$
>  <Compound>
CC(C)(C)OC(=O)NCCCSC[C@H]1O[C@@H](n2cnc3c(N)ncnc32)[C@H](O)[C@@H]1O

>  <Group>
Not fulfilled

$$$$
>  <Compound>
Cc1c(Sc2ccc(Cl)cc2)c2cc(Cl)ccc2n1CC(=O)O

>  <Group>
Not fulfilled

$$$$
>  <Compound>
COc1cc(N2CCN(C(C)=O)CC2)ccc1Nc1ncc(Cl)c(-c2cnc3cc(Cl)ccn23)n1

>  <Group>
Fulfilled

$$$$
>  <Compound>
CCn1c(=O)c2c(=O)cc(O)oc2c2ccccc21

>  <Group>
Not fulfilled

$$$$
>  <Compound>
CC(C)C(NC(=O)Cn1c(-c2cccnc2)ncc(NC(=O)OCc2ccccc2)c1=O)C(=O)C(F)(F)F (stereo unspecified)

>  <Group>
Not fulfilled

$$$$
>  <Compound>
O=C(NCC12CC3CC(CC(C3)C1)C2)c1cc(CN2CC3CNCC(C2)O3)ccc1Cl

>  <Group>
Not fulfilled

$$$$
>  <Compound>
CN[C@@H](C)C(=O)N[C@H](C(=O)N[C@H]1CCCN(CCc2ccc([N+](=O)[O-])cc2)C1)C(C)(C)C

>  <Group>
Not fulfilled

$$$$
>  <Compound>
CNC1(C)C2CCC(C2)C1(C)C (stereo unspecified)

>  <Group>
Not fulfilled

$$$$
>  <Compound>
O=C(COc1ccccc1O)NC1CCCC1

>  <Group>
Not fulfilled

$$$$
>  <Compound>
CC(C)C(NC(=O)Cn1c(C2CCCCC2)ncc(NC(=O)OCc2ccccc2)c1=O)C(=O)C(F)(F)F (stereo unspecified)

>  <Group>
Not fulfilled

$$$$
>  <Compound>
C[C@H]1O[C@@H](n2cnc3c(N)nc(OC4CC5CC5C4)nc32)[C@H](O)[C@@H]1O (stereo partly specified)

>  <Group>
Not fulfilled

$$$$
>  <Compound>
Cc1cnc(-c2ccc(C)c(NC(=O)c3ccc(OCc4ccccn4)cc3)c2)[nH]1

>  <Group>
Fulfilled

$$$$
>  <Compound>
O=C(N[C@@H]1Cc2ccccc2N(C[C@@H](O)CO)C1=O)c1cc2cc(Cl)sc2[nH]1

>  <Group>
Fulfilled

$$$$
>  <Compound>
Cc1c(Sc2ccc(Cl)cc2)c2cc(Cl)ccc2n1C(C)C(=O)O (stereo unspecified)

>  <Group>
Fulfilled

$$$$

###

test: in vitro; conditions: hepatocytes

>  <Molecule>
Cc1cc(NS(=O)(=O)c2ccc(Cl)cc2)no1

>  <hepatocyte CLint, µL/min/1e6 cells>
8.51

$$$$
>  <Molecule>
Cc1cc(NC(=O)Nc2cccc3ccccc23)no1

>  <hepatocyte CLint, µL/min/1e6 cells>
95.5

$$$$
>  <Molecule>
CCN(CC)CCNc1ncnc2c1sc1nc(N3CCOCC3)c3c(c12)CCCC3

>  <hepatocyte CLint, µL/min/1e6 cells>
26.3

$$$$
>  <Molecule>
CCOc1nc2ccc(OCCC3CCN(c4ccc(C)nn4)CC3)cc2o1

>  <hepatocyte CLint, µL/min/1e6 cells>
4

$$$$
>  <Molecule>
CC(NC(C)(C)C)C(=O)c1cccc(Cl)c1 (stereo unspecified)

>  <hepatocyte CLint, µL/min/1e6 cells>
72.4

$$$$
>  <Molecule>
COc1cc(Nc2nc3c(cc2F)ncn3[C@@H](CO)c2ccc(F)cn2)n[nH]1

>  <hepatocyte CLint, µL/min/1e6 cells>
27.5

$$$$

###

assay: physchem; conditions: octan-1-ol/water, pH 7.4, LogD7.4
Property: logD

>  <Molecule>
Cc1nn(-c2ccccc2)c(NS(=O)(=O)C2CCCCC2)c1C(=O)N[C@@H](C)C(C)(C)C

>  <Property>
logD

>  <Readout value>
1.75

$$$$
>  <Molecule>
CC1(C)CCC(c2ccc(Cl)cc2)=C(CN2CCN(c3ccc(C(=O)NS(=O)(=O)c4ccc(N[C@H](CCN5CCOCC5)CSc5ccccc5)c(S(=O)(=O)C(F)(F)F)c4)cc3)CC2)C1

>  <Property>
logD

>  <Readout value>
0.64

$$$$
>  <Molecule>
O=c1[nH]nc2cc(CO)c3ccc(-c4ccc[nH]4)cc3n12

>  <Property>
logD

>  <Readout value>
2.19

$$$$
>  <Molecule>
CCCNc1nc(N2CCC[C@@H](CC(=O)O)C2)ccc1C(=O)NC1CCCCC1

>  <Property>
logD

>  <Readout value>
2.33

$$$$
>  <Molecule>
CCCS(=O)(=O)N1N=Cc2cc(Cl)ccc2B1O

>  <Property>
logD

>  <Readout value>
-0.4

$$$$
>  <Molecule>
N#Cc1cc(S(=O)(=O)NCC(c2ccccc2)N2CCCCCC2)ccc1F (centres undefined)

>  <Property>
logD

>  <Readout value>
2.71

$$$$
>  <Molecule>
CCCSc1nc(N[C@@H]2C[C@H]2c2ccccc2)c2nnn([C@@H]3C[C@H](OCCO)[C@@H](O)[C@H]3O)c2n1

>  <Property>
logD

>  <Readout value>
3.87

$$$$
>  <Molecule>
Clc1ccc(CN(Cc2ccc(Cl)cc2)c2nnn[nH]2)cc1

>  <Property>
logD

>  <Readout value>
2.74

$$$$
>  <Molecule>
CN1CCC(n2cc(-c3cnc(N)c(-c4nc5ccc(F)cc5o4)c3)cn2)CC1

>  <Property>
logD

>  <Readout value>
3.35

$$$$

###

assay: in vitro; conditions: human, plasma, PPB
Residues, ends and D or L forms follow the SMILES beside them.
Each entry gets class 0 if its fraction unbound at 5 h stays under 0.07, and class 1 if its fraction unbound at 5 h is 0.07 or above.

>  <Compound>
Cc1ncsc1C(=O)N(Cc1cc(=O)[nH]c2c(F)cccc12)c1cccc(Cl)c1

>  <Group>
class 0

$$$$
>  <Compound>
Cn1ncc2c(=O)[nH]c(-c3ccccc3)nc21

>  <Group>
class 0

$$$$
>  <Compound>
COc1ccc2c(O)cc(=O)n(Cc3ccc(-c4ccccc4-c4nn[nH]n4)cc3)c2c1

>  <Group>
class 0

$$$$
>  <Compound>
Cc1ccc2c(c1)c(S(=O)(=O)c1ccc(Cl)cc1)c(C)n2CC(=O)O

>  <Group>
class 0

$$$$
>  <Compound>
CC(C(=O)OC1CC[N+](C)(C)CC1)(c1ccccc1)N1CCCCC1 (configuration not stated)

>  <Group>
class 1

$$$$
>  <Compound>
CN(C)CCNc1cc(-c2ccncc2)nc2ccccc12

>  <Group>
class 1

$$$$
>  <Compound>
O=C(CC12CC3CC(CC(C3)C1)C2)Nc1cccc2nc(NCCNCCO)ccc12

>  <Group>
class 0

$$$$
>  <Compound>
C[C@@H](NC(=O)Cc1ccc(C2CC2)cc1)c1ccc(OCC(F)(F)F)cn1

>  <Group>
class 0

$$$$
>  <Compound>
CO[C@@]1(NC(=O)CSCC#N)C(=O)N2C(C(=O)O)=C(CSc3nnnn3C)CS[C@@H]21

>  <Group>
class 1

$$$$
>  <Compound>
COc1cnc(-c2ccccn2)nc1N1CCCCC1

>  <Group>
class 0

$$$$
>  <Compound>
O=C(O)COc1ccc([N+](=O)[O-])cc1-c1ccccc1

>  <Group>
class 0

$$$$
>  <Compound>
C[C@@H](C(N)=O)c1ccc(OS(=O)(=O)C(F)(F)F)cc1

>  <Group>
class 1

$$$$
>  <Compound>
C[C@@H]1CN(C(=O)[C@@H]2CN(C(C)(C)C)C[C@H]2c2ccc(F)cc2F)C[C@H](C)[C@@]1(O)c1ccccc1

>  <Group>
class 1

$$$$
>  <Compound>
Cc1ncc(NC(=O)c2cc(NC(=O)c3cc(F)cc(Cl)c3)ccc2Cl)s1

>  <Group>
class 0

$$$$
>  <Compound>
CCn1cc(C(=O)O)c(=O)c2cc(F)c(N3CCNCC3)nc21

>  <Group>
class 1

$$$$
>  <Compound>
O=C(/C=C/c1ccccc1Cl)Nc1ccc2c(c1)C(=O)NC2=O

>  <Group>
class 1

$$$$
>  <Compound>
Cn1c(-c2cccc(F)c2)nc2c(N)nc(C#CC3(O)CCCC3)nc21

>  <Group>
class 1

$$$$
>  <Compound>
COc1ncc(-c2cccc3c2C[C@H](NC(=O)c2ccc(COCC(F)(F)F)nc2)CO3)cn1

>  <Group>
class 0

$$$$
>  <Compound>
CCOc1cc2ncc(C(N)=O)c(Nc3ccc(F)cc3F)c2cc1N1CCC(O)CC1

>  <Group>
class 1

$$$$
>  <Compound>
c1ccc([C@@H]([C@H](c2ccccc2)N2CCCC2)N2CCCC2)cc1

>  <Group>
class 1

$$$$
>  <Compound>
O=C1N(c2ccccc2)c2ccccc2C1(Cc1ccncc1)Cc1ccncc1

>  <Group>
class 0

$$$$
>  <Compound>
NC(=O)c1cccc2c3c([nH]c12)CCCC3

>  <Group>
class 1

$$$$
>  <Compound>
CCOC(=O)Nc1ccc(NCc2ccc(F)cc2)nc1N

>  <Group>
class 1

$$$$
>  <Compound>
N=C(N)c1ccc(CNC(=O)C2(NC(=O)[C@H](NCC(=O)O)C3CCCCC3)Cc3ccccc3C2)cc1

>  <Group>
class 1

$$$$
>  <Compound>
NC1=NC(c2ccc(F)cc2)Cc2ccccc21 (configuration not stated)

>  <Group>
class 1

$$$$
>  <Compound>
CCCCCCCC(=O)N[C@@H](CCN)C(=O)N[C@H](C(=O)N[C@@H](C)C(=O)N[C@H]1CCNC(=O)[C@H]([C@@H](C)O)NC(=O)[C@H](CCN)NC(=O)[C@H](CCN)NC(=O)[C@H](CC(C)C)NC(=O)[C@@H](Cc2ccccc2)NC(=O)[C@H](CCN)NC1=O)[C@@H](C)O (HELM PEPTIDE1{[CCCCCCCC(=O)[*:2]].[Dab].T.A.[Dab].[Dab].[dF].L.[Dab].[Dab].T}$PEPTIDE1,PEPTIDE1,5:R3-11:R2$$$V2.0)

>  <Group>
class 1

$$$$
